# System: MS2 coat protein
# Assay Name: apparent Kd, MS2 coat protein; higher = weaker binding; RNA-MaP array
# Details: ligand present: flavin mononucleotide; designed as: OFF switch for flavin mononucleotide
// classify(record): look up apparent Kd in ranges low band (below 20 nM), middle band (20 nM to below 60 nM), high band (60 nM or more)

Just checking, what class would you give "CGUAUAGCAGGAUAUUGCAGCCGGCACAUGAGGAUCACCCAUGUCGAUGGUCCGCCAUAGCAAGAAGGGCUAGUAG" here?
middle band

Just checking, what class would you give "UCUCAGUGAGGAUAUCGAACAGACCUUUGUGUGCUAAUUUUCGAGAAGGCACAUGAGGAUCACCCAUGUGACUC" here?
middle band

Just checking, what class would you give "AUAAAAGACAUGAGGAUCACCCAUGUAGCUCCUCGGUCUUCGAGAAGGUUCUUGCCCAGAGCGUGAAAGGAUAUCGCAUAUAUC" here?
high band

Just checking, what class would you give "AUUAGGCGGCAGAAGGCCCAUACCCGGACAUGAGGAUCACCCAUGUACUCGUUUCGCCAUAUCAGGGAGGAUAUGCCAACAACU" here?
low band

Just checking, what class would you give "UUACCAGCAGGAUAUUCAUCUGUUAACAUGAGGAUCACCCAUGUCUCGUGAUCGAACUAGGAAGAAGGGCUUAUAC" here?
high band

Just checking, what class would you give "ACCCUGUGAGGAUAUUAUUAGCUCGGCCAUAAUAAGGAUAGUAAGAAGGCACAUGAGGAUCACCCAUGUAUCCU" here?
low band

Just checking, what class would you give "UCGACAUGAGGAUCACCCAUGUGCCUCGGAUGUCGUUAGAGUGAGGAUAUGUCACACCAAAACGUACAGAAGGCACUUAUUAGA" here?
high band

Just checking, what class would you give "AUCAAUAAUGUUAGGAUAUCUAGCUAUUUUAUGGUAGAGAAGGAACAUGAGGAUCACCCAUGUUGAGCUAUAUU" here?
low band

Just checking, what class would you give "UCCUCGUUAGGAUAUGCCCACAUACACAGUUGUGAACUCUGGCAGAAGGAACAUGAGGAUCACCCAUGUAUAUA" here?
high band

Just checking, what class would you give "AAUAGAGCACUAGGAUAUGUUUCGUGUGCAGGUGGACAUGAGGAUCACCCAUGUAUAUGUUCAAGACAGAAGGAGACAGAUGAA" here?
middle band

Just checking, what class would you give "ACAAGCCGAGGAUAUACAAGAAAGGCAAGACUGAUAAGAUAACAUGAGGAUCACCCAUGUAGAAGGCGGAAUAC" here?
low band

Just checking, what class would you give "UCCUCGCACGAGAAGGCAAGCCGAGAAACACCUUGAGGAUAUCGUCGACAGACCACCGGGACAUGAGGAUCACCCAUGUGGGCC" here?
middle band

Just checking, what class would you give "UCAUUUUCAGAAGGAUAUUUACCAGGCCAAGGUAAAGAAGGUCUAUGGGUCACUUCCUUGAUACAUGAGGAUCACCCAUGUGAA" here?
high band

Just checking, what class would you give "GAAUUUCGGAAGAAGGGACUCGAUCAGUUCAGGUCAGGAUAUUCACAUGAGGAUCACCCAUGUCCAUCAGCAUGACGUUUCCAC" here?
low band

Just checking, what class would you give "AUUCGCCGAGGAUAUAAGUCGUUUGACAUGAGGAUCACCCAUGUUGUCAGUGGAAAUCGUUUAGAAGGCGGCCUCC" here?
low band

Just checking, what class would you give "CAUGGAUAAGGAUAUACAUGAGGAUCACCCAUGUAUAGAAGGAUACAAAGAUAAGAAUGUAGAAGGUAUUGGUU" here?
low band

Just checking, what class would you give "AAUGAAAAGCAGAAGGCCUUAGCAAGUCGUAGAGGAGGAUAUGCGUACGCGGGUUGGCCAACAUGAGGAUCACCCAUGUCACCA" here?
middle band

Just checking, what class would you give "CUCAAGUAAGGAUAUAUUCACGCUCGUAAUUAGUGUCGCGCAUAGAAGGUACAUGAGGAUCACCCAUGUCAUGU" here?
low band

Just checking, what class would you give "CCAGCUAAAGGAUAUACUGCCGGUGUUAUGUAAUAAUUGCAACAUGAGGAUCACCCAUGUAGAAGGUAAGUGAA" here?
low band

Just checking, what class would you give "GAUUUUAGUGAAGGAUAUACAAACAACAUGAGGAUCACCCAUGUCUGGAAUGAUCGCAGGGCCCGGUAGAAGGUCAUCAGAAAG" here?
middle band

Just checking, what class would you give "UGUUGGGAAACAGGAUAUGAGCUUAAAGCACAAGGGAUUCGCACAUGAGGAUCACCCAUGUAACGUCAGAAGGGUUUGUUUGUA" here?
middle band

Just checking, what class would you give "UCCGUUGUAGGAUAUACAUGAGGAUCACCCAUGUAAUGUGGGCAAUUAUAAACUUACUGUAGAAGGACAGAGUG" here?
high band

Just checking, what class would you give "UGAGGUAAGGAGAAGGUCCAACGAUGAAUUUAGGAAGGAUAUCCAACAUGAGGAUCACCCAUGUAAGGGUGCCCGAAGUCAGGA" here?
high band

Just checking, what class would you give "AUAUUCGUUCAGGAUAUGUUAAGCUCACGCCUAACAGAAGGGAAUACAUGAGGAUCACCCAUGUGGUGAUGGGA" here?
high band

Just checking, what class would you give "GUGUUAUAUCCGUAACAUGAGGAUCACCCAUGUGUGAGAUCGAAGGAUAUCUGUCUGAGCUCAAAAGAGAAGGUCGAUACAAUG" here?
middle band

Just checking, what class would you give "AGAGAGUCAGGAUAUAAAUAUAAAGAGAUAAAGCAAACAAUUUAGAAGGGACAUGAGGAUCACCCAUGUGAUAA" here?
low band

Just checking, what class would you give "CAACGGUUAGAGAAGGCAUAGUAAAGAAUUCAAUGAGGAUAUCUAAAGAAAUGUAUAGGUCUUUUACAUGAGGAUCACCCAUGU" here?
low band
